target: USP3 ZnF-UBD (Homo sapiens); test: SPR binding to USP3 ZnF-UBD; details: KD (µM) USP3
Sequence (Q9Y6I4 1-131): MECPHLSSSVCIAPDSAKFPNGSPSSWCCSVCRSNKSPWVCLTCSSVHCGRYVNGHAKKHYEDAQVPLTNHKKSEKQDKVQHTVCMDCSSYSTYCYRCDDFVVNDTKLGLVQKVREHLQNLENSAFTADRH
Reported Endpoint: Kd (µM)

Query Smiles	Reported Endpoint	Unit Abbrev	Measured Value
O=C(O)CNc1ncnc2ccccc12	Kd	µM	191
